Across several studies, compounds have been characterized by their pIC50 on Focal adhesion kinase 1 (Homo sapiens); a selection follows.
pIC50: −log10 of the molar value.
MEASURED_PROPERTY: pIC50

As a guide, the following entries are already answered.
{"RECORD_SMILES": "CNC(=O)c1ccccc1Nc1cc(Nc2cn(C(F)F)nc2C)ncc1C(F)(F)F", "pIC50": 7.30}
{"RECORD_SMILES": "Cc1ncsc1-c1ccc(CNC(=O)[C@@H]2C[C@H](O)CN2C(=O)[C@@H](NC(=O)CCOCCOc2ccc(Nc3ncc(C(F)(F)F)c(NCc4cccc(N(C)S(C)(=O)=O)c4)n3)cc2)C(C)(C)C)cc1", "pIC50": 7.95}
{"RECORD_SMILES": "CNC(=O)c1ccccc1Nc1cc(Nc2cnn(CC(=O)N(C)CCOC)c2)ncc1Cl", "pIC50": 7.00}
{"RECORD_SMILES": "CNC(=O)c1ccccc1Nc1cc(Nc2cnn(CC(=O)N3CCCN(C)CC3)c2)ncc1F", "pIC50": 6.01}
{"RECORD_SMILES": "CNC(=O)c1ccccc1Nc1cc(Nc2cc(C3CC3)nn2C)ncc1C(F)(F)F", "pIC50": 7.59}
{"RECORD_SMILES": "CN1CCc2cccc(Nc3cc(Nc4cnn(CC(=O)N5CCOCC5)c4)ncc3F)c2C1=O", "pIC50": 6.69}
{"RECORD_SMILES": "Cc1ncc(CNc2nc(Nc3ccccc3)ncc2C(F)(F)F)c(N(C)S(C)(=O)=O)n1", "pIC50": 8.58}
{"RECORD_SMILES": "CC(=O)Nc1cccc(Nc2ncc(C(F)(F)F)c(NCc3ncccc3N(C)S(C)(=O)=O)n2)c1", "pIC50": 8.78}

A: CN(C)CCN(C)C(=O)c1ccc(Nc2ncc(C(F)(F)F)c(NCc3cccnc3N(C)S(C)(=O)=O)n2)cc1
B: CN1CCN(C(=O)c2cccc(Nc3ncc(C(F)(F)F)c(NCc4cccnc4N(C)S(C)(=O)=O)n3)c2)CC1
Please indicate which entry, A or B , has the lower recorded pIC50 value. Select an item and report its label.
A
(A: 8.33, B: 8.59)

a: Cc1ncc(CNc2nc(Nc3cccc(C(N)=O)c3)ncc2C(F)(F)F)c(N(C)S(C)(=O)=O)n1
b: CN(c1nccnc1CNc1nc(Nc2ccc(C#N)c(O)c2)ncc1C(F)(F)F)S(C)(=O)=O
When the recorded pIC50 values are compared, which is smaller: that of a or that of b ? # reply format: chosen label
a

###

Several reports have described pIC50 for Focal adhesion kinase 1 (Homo sapiens); a selection of those results is presented here.
pIC50: −log10 of the molar value.
MEASURED_PROPERTY: pIC50

# count of solved cases: 3
{"RECORD_SMILES": "CN1CCN(c2cccc(Nc3ncc(C(F)(F)F)c(NCc4cccnc4N(C)S(C)(=O)=O)n3)c2)C1=O", "pIC50": 8.79}
{"RECORD_SMILES": "CONC(=O)c1cc(F)ccc1Nc1cc(Nc2cc(C)nn2C)ncc1C(F)(F)F", "pIC50": 7.92}
{"RECORD_SMILES": "Cc1ccc(CNc2nc(Nc3ccc(N4CCCS4(=O)=O)cc3)ncc2C(F)(F)F)c(N(C)S(C)(=O)=O)n1", "pIC50": 8.70}

A: CS(=O)(=O)c1cccc(CNc2nc(Nc3ccc(N4CCCS4(=O)=O)cc3)ncc2C(F)(F)F)c1
B: C=CC(=O)Nc1ccccc1Nc1nc(Nc2ccc3c(c2)OCCOCCOCCO3)nc2[nH]cnc12
C: CCCN(CCO)C(=O)c1ccc(Nc2ncc(C(F)(F)F)c(NCc3cccnc3N(C)S(C)(=O)=O)n2)cc1
Arrange these 3 compounds in increasing order of pIC50. Write the labels in rank order as requested.
B, C, A
(B: 7.76, C: 8.06, A: 8.68)

I: CN(c1cccc(CNc2nc(Nc3ccc(C(N)=O)c(F)c3)ncc2C(F)(F)F)c1)S(C)(=O)=O
II: CN(c1cccnc1CNc1nc(Nc2ccc(C(N)=O)nc2)ncc1C(F)(F)F)S(C)(=O)=O
III: CS(=O)(=O)c1cccc(CNc2nc(Nc3ccc(C#N)c(O)c3)ncc2C(F)(F)F)c1
Task field, ranking: reported pIC50, descending order. Response field: labels, in requested order.
I, III, II
(I: 8.67, III: 8.13, II: 7.82)

###

pIC50: −log10 of the molar value.
Header: pIC50 / Focal adhesion kinase 1 (Homo sapiens, UniProt Q05397) / multiple publications
MEASURED_PROPERTY: pIC50

Illustrative cases are given below, each with its answer.
{"RECORD_SMILES": "Cc1nn(C)cc1Nc1cc(Nc2cccc3c2C(=O)N(C)CCO3)c(C(F)(F)F)cn1", "TEST_SYSTEM": "Focal adhesion kinase 1 (Homo sapiens, UniProt Q05397)", "pIC50": 8.22}
{"RECORD_SMILES": "Cc1cc(C(N)=O)ccc1Nc1ncc(C(F)(F)F)c(NCc2cc(N(C)S(C)(=O)=O)ccn2)n1", "TEST_SYSTEM": "Focal adhesion kinase 1 (Homo sapiens, UniProt Q05397)", "pIC50": 7.76}
{"RECORD_SMILES": "CN(c1ncccc1CNc1nc(Nc2cccc(C(=O)NC3CCC3)c2)ncc1C(F)(F)F)S(C)(=O)=O", "TEST_SYSTEM": "Focal adhesion kinase 1 (Homo sapiens, UniProt Q05397)", "pIC50": 8.66}
{"RECORD_SMILES": "CNC(=O)c1ccccc1Nc1cc(Nc2cnn(C(C)C)c2)ncc1C(F)(F)F", "TEST_SYSTEM": "Focal adhesion kinase 1 (Homo sapiens, UniProt Q05397)", "pIC50": 7.47}
{"RECORD_SMILES": "CN(c1ncccc1CNc1nc(Nc2ccc(N3CCCS3(=O)=O)cc2)ncc1C(F)(F)F)S(C)(=O)=O", "TEST_SYSTEM": "Focal adhesion kinase 1 (Homo sapiens, UniProt Q05397)", "pIC50": 8.86}
{"RECORD_SMILES": "Cc1cnc(N(C)S(C)(=O)=O)c(CNc2nc(Nc3ccccc3)ncc2C(F)(F)F)c1", "TEST_SYSTEM": "Focal adhesion kinase 1 (Homo sapiens, UniProt Q05397)", "pIC50": 9.22}
{"RECORD_SMILES": "CONC(=O)c1ccc(F)cc1Nc1cc(Nc2cn(C)nc2C)ncc1C(F)(F)F", "TEST_SYSTEM": "Focal adhesion kinase 1 (Homo sapiens, UniProt Q05397)", "pIC50": 8.40}

1: CNC(=O)c1ccccc1Nc1cc(Nc2cnn(CC(=O)N(C)C3CCN(C)CC3)c2)ncc1F
2: CC(=O)c1ccc(Nc2ncc(C(F)(F)F)c(NCc3cccnc3N(C)S(C)(=O)=O)n2)cc1
3: CNC(=O)c1ccccc1Nc1cc(Nc2cn(C)nc2OC)ncc1C(F)(F)F
4: Cc1ccc(C#N)cc1Nc1ncc(C(F)(F)F)c(NCc2cccnc2N(C)S(C)(=O)=O)n1
5: CCCC(=O)Nc1[nH]cc(-c2ccc(NC(=O)Nc3cc(C(F)(F)F)ccc3F)cc2)c1C(N)=O
Which order do these items take when sorted by rising pIC50? List them. // format: requested-order list of labels
1, 5, 3, 2, 4

###

pIC50: −log10 of the molar value.
The following compounds were reported with pIC50 values on Focal adhesion kinase 1 (Homo sapiens) in different studies.

{"RECORD_SMILES": "COc1cc(-n2cccn2)ccc1Nc1nc2c(c(Nc3ccccc3S(=O)(=O)NC(C)C)n1)CCN2", "READING": "> 7.30"}
{"RECORD_SMILES": "Cc1cc(Nc2ncc(C(F)(F)F)c(NCc3cccnc3N(C)S(C)(=O)=O)n2)ccc1C(N)=O", "READING": "> 9.23"}
{"RECORD_SMILES": "CCn1nccc1Nc1cc(Nc2cccc3c2C(=O)N(C)CC3)c(Cl)cn1", "READING": 8.40}
{"RECORD_SMILES": "CN(c1ncccc1CNc1nc(Nc2ccc(C(N)=O)nc2)ncc1C(F)(F)F)S(C)(=O)=O", "READING": 8.40}

With Focal adhesion kinase 1 (Homo sapiens) as the test system, CNC(=O)c1ccccc1Nc1cc(Nc2cc(OC)nn2C)ncc1Cl showed pIC50 of 7.22

Log: Focal adhesion kinase 1 (Homo sapiens), compound CC(C)NS(=O)(=O)c1ccccc1Nc1nc(Nc2ccc(N3CCOCC3)cc2)nc2c1CCN2 , pIC50 = > 7.70

Recorded pIC50 for CNC(=O)c1ccccc1Nc1nc(Nc2ccc3c(ccn3CCCN3CCOCC3)c2)nc2c1C(C)(C)CN2 on Focal adhesion kinase 1 (Homo sapiens) was > 6.70

The observed pIC50 for Cc1csc(Nc2nc3c(c(Nc4ccccc4S(=O)(=O)NC(C)C)n2)CCN3)n1 when tested with Focal adhesion kinase 1 (Homo sapiens) stands at < 6.00

###

Compiled literature pIC50, tested on Focal adhesion kinase 1 (Homo sapiens).
pIC50: −log10 of the molar value.
MEASURED_PROPERTY: pIC50

Below: 10 compounds and their reported pIC50.
{"COMPOUND": "CN(c1cccc(CNc2nc(Nc3ccc(C(N)=O)cc3)ncc2C(F)(F)F)c1)S(C)(=O)=O", "TEST_SYSTEM": "Focal adhesion kinase 1 (Homo sapiens)", "READING": 9.42}
{"COMPOUND": "Cc1nn(CCO)cc1Nc1cc(Nc2cccc3c2C(=O)N(C)CC3)c(Cl)cn1", "TEST_SYSTEM": "Focal adhesion kinase 1 (Homo sapiens)", "READING": 8.40}
{"COMPOUND": "CNC(=O)c1cccc(F)c1Nc1cc(Nc2cn(C)nc2C)ncc1C(F)(F)F", "TEST_SYSTEM": "Focal adhesion kinase 1 (Homo sapiens)", "READING": 8.00}
{"COMPOUND": "CN1CCc2cccc(Nc3cc(Nc4cnn(C5CCCNC5)c4)ncc3F)c2C1=O (stereo not drawn)", "TEST_SYSTEM": "Focal adhesion kinase 1 (Homo sapiens)", "READING": 6.17}
{"COMPOUND": "Cc1ncsc1-c1ccc(CNC(=O)[C@@H]2C[C@@H](O)CN2C(=O)[C@@H](NC(=O)CCOCCOCCOCCOCCOc2ccc(Nc3ncc(C(F)(F)F)c(NCc4cccc(N(C)S(C)(=O)=O)c4)n3)cc2)C(C)(C)C)cc1", "TEST_SYSTEM": "Focal adhesion kinase 1 (Homo sapiens)", "READING": 8.21}
{"COMPOUND": "Cc1ccc(N(C)S(C)(=O)=O)c(CNc2nc(Nc3ccccc3)ncc2C(F)(F)F)c1", "TEST_SYSTEM": "Focal adhesion kinase 1 (Homo sapiens)", "READING": 9.22}
{"COMPOUND": "CNC(=O)c1ccccc1Nc1cc(Nc2cnn(C)c2C)ncc1C(F)(F)F", "TEST_SYSTEM": "Focal adhesion kinase 1 (Homo sapiens)", "READING": 8.22}
{"COMPOUND": "CCc1nn(C(C)(C)C)c(Nc2cc(Nc3cccc4c3C(=O)N(C)CC4)c(Cl)cn2)c1C", "TEST_SYSTEM": "Focal adhesion kinase 1 (Homo sapiens)", "READING": 5.25}
{"COMPOUND": "CNC(=O)c1ccccc1Nc1cc(Nc2cc(C)nn2C)ncc1C(F)(F)F", "TEST_SYSTEM": "Focal adhesion kinase 1 (Homo sapiens)", "READING": 8.10}
{"COMPOUND": "COC(=O)c1ccc(Nc2ncc(C(F)(F)F)c(NCc3cccc(N(C(F)F)S(C)(=O)=O)c3)n2)cc1", "TEST_SYSTEM": "Focal adhesion kinase 1 (Homo sapiens)", "READING": 6.92}

A: CC(O)c1ccc(Nc2ncc(C(F)(F)F)c(NCc3cccc(N(C)S(C)(=O)=O)c3)n2)cc1 (stereo not drawn)
B: CN(c1ncccc1CNc1nc(Nc2cccc(C(=O)N3CCOCC3)c2)ncc1C(F)(F)F)S(C)(=O)=O
# argmax over pIC50 for candidates A and B Which one? Tell me its label.
A
(A: 9.21, B: 8.67)

P: Cc1nn(C)cc1Nc1cc(Nc2ccc(N3CCN(C(C)C)CC3)c3c2C(=O)N(C)C3)c(Cl)cn1
Q: CN(c1cccc(CNc2nc(Nc3ccc(C(N)=O)nc3)ncc2C(F)(F)F)c1)S(C)(=O)=O
Between P and Q , whose measured pIC50 reads higher? In your reply, give the label of the chosen option.
Q
(Q: 8.09, P: 7.44)
